# study-system: human recombinant Monoacylglycerol Lipase (Homo sapiens, UniProt Q99685)
# Sequence (Q99685 whole entry): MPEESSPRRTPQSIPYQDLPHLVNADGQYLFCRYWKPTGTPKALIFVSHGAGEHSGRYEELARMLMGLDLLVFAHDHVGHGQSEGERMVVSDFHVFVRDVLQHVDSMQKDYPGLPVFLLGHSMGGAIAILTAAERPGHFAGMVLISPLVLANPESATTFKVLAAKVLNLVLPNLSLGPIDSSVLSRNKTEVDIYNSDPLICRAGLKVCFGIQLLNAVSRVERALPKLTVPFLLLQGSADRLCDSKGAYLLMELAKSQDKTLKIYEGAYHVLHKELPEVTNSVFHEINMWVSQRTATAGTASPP
# assay-remarks: MAGL inactivation (kinact/KI from enzyme progress curves, T=0 min protocol)
# reported-conditions: from plot of Kobs vs. compound concentration, geometric mean of 2-5 determinations (b: ≥6)
measured-quantity: MAGL kinact/KI

Consider the reported MAGL kinact/KI for these molecules:
I am curious: what MAGL kinact/KI value has been reported for O=C(O[C@H](CO)C(F)(F)F)N1CCC2(CC1)CC(c1ccc(C(F)F)cn1)C2 [Example 48] ? 26000 1/s per M

Then this molecule: O=C(O[C@H](CO)C(F)(F)F)N1CCC2(CC1)CC(c1ccc(C(F)(F)F)cn1)C2 [Example 79] 63500 1/s per M

Could you do the same for O=C(O[C@H](CO)C(F)(F)F)N1CCC2(CC1)CC(c1cc(C(F)F)ccn1)CO2 (single isomer, unassigned) [Example 35] , please? 23000 1/s per M

# iterate: O=C(O[C@H](CO)C(F)(F)F)N1CCC2(CC1)CC(n1cc(C(F)F)cn1)CO2 (single isomer, unassigned) [Example 20] 7170 1/s per M

For O=C(O[C@H](CO)C(F)(F)F)N1CCC2(CC1)CC(n1cc(C(F)F)cn1)C2 [Example 66] then? 15700 1/s per M

Likewise for Cc1cnn(C2COC3(CCN(C(=O)O[C@H](CO)C(F)(F)F)CC3)C2)c1 (single isomer, unassigned) [Example 24] ? 7840 1/s per M

Continue with the next molecule.
# MAGL kinact/KI lookup, item O=C(O[C@H](CO)C(F)(F)F)N1CCC2(CC1)CC(Oc1ccccn1)C2 [Example 87] 32600 1/s per M
